The origin of these recorded values is ChEMBL document CHEMBL1136463.

System: Rattus norvegicus
METHOD_SUMMARY: Area under curve (AUC) at a dose 1 mg/kg was determined in rat liver
Format: ADME, organism-based
Set-up: dose 1 mg/kg
MEASUREMENT_PARAMETERS: in vivo
Each item that follows carries a reported AUC.
# output: bare number, implied unit mg·h/kg

Use the examples below as a reference point.
NCC(=O)N1C[C@@H](N)C[C@@H]1C(=O)N[C@H](CCc1ccccc1)C(=O)Nc1ccc2ncccc2c1    12
NC[C@@H]1CN[C@@H](C(=O)N[C@H](CCc2ccccc2)C(=O)Nc2ccc3ncccc3c2)C1    22

# context switch: different compound, same AUC
Entry Cc1cc2nc([C@@H](CCc3ccccc3)NC(=O)[C@H]3C[C@H](N)CN3C(=O)CN)[nH]c2cc1C under Rattus norvegicus had AUC of 176

----------
METHOD_SUMMARY: Ionization constant (pKa1) of compound was determined
Assay type: physicochemical
MEASUREMENT_PARAMETERS: read-out: pKa1
Each item that follows carries a reported pKa.
Respond with the number and no other words.

NCC(=O)N1C[C@@H](CN)C[C@@H]1C(=O)N[C@H](CCc1ccccc1)C(=O)Nc1ccc2ncccc2c1    9
NCC(=O)N1C[C@@H](N)C[C@@H]1C(=O)N[C@H](CCc1ccccc1)C(=O)Nc1cnc2ccccc2c1    8.1
NCC(=O)N1C[C@@H](N)C[C@@H]1C(=O)N[C@H](CCc1ccccc1)C(=O)Nc1ccc2ncccc2c1    8.2

# context switch: different compound, same pKa
Per the record, NC[C@@H]1CN[C@@H](C(=O)N[C@H](CCc2ccccc2)C(=O)Nc2ccc3ncccc3c2)C1 has pKa of 9.6

----------
System: Rattus norvegicus
METHOD_SUMMARY: Area under curve (AUC) at a dose 1 mg/kg was determined in rat kidney
Format: ADME, organism-based
Design: dose 1 mg/kg
MEASUREMENT_PARAMETERS: in vivo
Each item that follows carries a reported AUC.
# output: bare number, implied unit mg·h/kg

Use the examples below as a reference point.
Cc1cc2nc([C@@H](CCc3ccccc3)NC(=O)[C@H]3C[C@H](N)CN3C(=O)CN)[nH]c2cc1C    133
NCC(=O)N1C[C@@H](N)C[C@@H]1C(=O)N[C@H](CCc1ccccc1)C(=O)Nc1ccc2ncccc2c1    96
NCC(=O)N1C[C@@H](CN)C[C@@H]1C(=O)N[C@H](CCc1ccccc1)C(=O)Nc1ccc2ncccc2c1    100

# context switch: different compound, same AUC
Per the record, NCC(=O)N1C[C@@H](N)C[C@@H]1C(=O)N[C@H](CCc1ccccc1)C(=O)Nc1cnc2ccccc2c1 has AUC of 79

----------
METHOD_SUMMARY: Steady state volume distribution (Vss) of compound after 2 hr iv infusion of 8.4 mg/kg in three rat
Assay type: ADME, organism-based
Design: dose 8.4 mg/kg, route intravenous
MEASUREMENT_PARAMETERS: in vivo, read-out: Vss
PROPERTY_LABEL: Vd

Per the record, NC[C@@H]1CN[C@@H](C(=O)N[C@H](CCc2ccccc2)C(=O)Nc2ccc3ncccc3c2)C1 has Vd of 0.5 L/kg

----------
Each item that follows carries a reported logP.
METHOD_SUMMARY: Partition coefficient (logP)
Type: physicochemical
MEASUREMENT_PARAMETERS: octanol/water
Respond with the number and no other words.

Use the examples below as a reference point.
Cc1cc2nc([C@@H](CCc3ccccc3)NC(=O)[C@H]3C[C@H](N)CN3C(=O)CN)[nH]c2cc1C    2.8
NCC(=O)N1C[C@@H](CN)C[C@@H]1C(=O)N[C@H](CCc1ccccc1)C(=O)Nc1ccc2ncccc2c1    1.2
NCC(=O)N1C[C@@H](N)C[C@@H]1C(=O)N[C@H](CCc1ccccc1)C(=O)Nc1ccc2ncccc2c1    1.4
NCC(=O)N1C[C@@H](N)C[C@@H]1C(=O)N[C@H](CCc1ccccc1)C(=O)Nc1cnc2ccccc2c1    1.8
N[C@@H]1CN[C@@H](C(=O)N[C@H](CCc2ccccc2)C(=O)Nc2cnc3ccccc3c2)C1    2.3

Per the record, NC[C@@H]1CN[C@@H](C(=O)N[C@H](CCc2ccccc2)C(=O)Nc2ccc3ncccc3c2)C1 has logP of 2.3

----------
Each item that follows carries a reported AUC.
Tested on: Rattus norvegicus
METHOD_SUMMARY: Area under curve (AUC) at a dose 1 mg/kg was determined in rat kidney
Type: ADME, organism-based
Parameters: dose 1 mg/kg
MEASUREMENT_PARAMETERS: in vivo
# output: bare number, implied unit mg·h/kg

Use the examples below as a reference point.
NC[C@@H]1CN[C@@H](C(=O)N[C@H](CCc2ccccc2)C(=O)Nc2ccc3ncccc3c2)C1    56
C[C@@H](N)C(=O)N[C@H](CCc1ccccc1)C(=O)Nc1cnc2ccccc2c1    8.5

Per the record, N[C@@H]1CN[C@@H](C(=O)N[C@H](CCc2ccccc2)C(=O)Nc2cnc3ccccc3c2)C1 has AUC of 25

----------
METHOD_SUMMARY: T1/2 (half life) of compound after 2 hr iv infusion of 8.4 mg/kg in three rat
Format: ADME, organism-based
Parameters: dose 8.4 mg/kg, route intravenous
MEASUREMENT_PARAMETERS: in vivo
PROPERTY_LABEL: half-life (min)
# output: bare number, implied unit min

Per the record, NC[C@@H]1CN[C@@H](C(=O)N[C@H](CCc2ccccc2)C(=O)Nc2ccc3ncccc3c2)C1 has half-life of 43.8

----------
Each item that follows carries a reported pKa.
METHOD_SUMMARY: Ionization constant (pKa1) of compound was determined
Format: physicochemical
MEASUREMENT_PARAMETERS: read-out: pKa1

Use the examples below as a reference point.
NCC(=O)N1CCNCC1C(=O)N[C@H](CCc1ccccc1)C(=O)Nc1cnc2ccccc2c1 (stereo not given in full)    8.2
NCC(=O)N1CCNC(C(=O)N[C@H](CCc2ccccc2)C(=O)Nc2cnc3ccccc3c2)C1 (stereo not given in full)    8.5
N[C@@H]1CN[C@@H](CC(=O)N[C@H](CCc2ccccc2)C(=O)Nc2cnc3ccccc3c2)C1    9.3
NC[C@@H]1CN[C@@H](C(=O)N[C@H](CCc2ccccc2)C(=O)Nc2cnc3ccccc3c2)C1    9.6

Per the record, N[C@@H]1CN[C@@H](C(=O)N[C@H](CCc2ccccc2)C(=O)Nc2cnc3ccccc3c2)C1 has pKa of 8.8

----------
Tested on: Rattus norvegicus
METHOD_SUMMARY: Area under curve (AUC) at a dose 1 mg/kg was determined in rat liver
Format: ADME, organism-based
Parameters: dose 1 mg/kg
MEASUREMENT_PARAMETERS: in vivo
Each item that follows carries a reported AUC.
# output: bare number, implied unit mg·h/kg

Use the examples below as a reference point.
NCC(=O)N1C[C@@H](N)C[C@@H]1C(=O)N[C@H](CCc1ccccc1)C(=O)Nc1cnc2ccccc2c1    20
N[C@@H]1CN[C@@H](C(=O)N[C@H](CCc2ccccc2)C(=O)Nc2cnc3ccccc3c2)C1    13
NCC(=O)N1C[C@@H](CN)C[C@@H]1C(=O)N[C@H](CCc1ccccc1)C(=O)Nc1ccc2ncccc2c1    26

Per the record, C[C@@H](N)C(=O)N[C@H](CCc1ccccc1)C(=O)Nc1cnc2ccccc2c1 has AUC of 5.5
